Hello, the source for this data is ChEMBL document CHEMBL5131453, in case you need it.

- test system: Peroxisome proliferator-activated receptor alpha (Homo sapiens) (UniProt Q07869)
- Sequence (Q07869 whole entry, the tested form may be a part): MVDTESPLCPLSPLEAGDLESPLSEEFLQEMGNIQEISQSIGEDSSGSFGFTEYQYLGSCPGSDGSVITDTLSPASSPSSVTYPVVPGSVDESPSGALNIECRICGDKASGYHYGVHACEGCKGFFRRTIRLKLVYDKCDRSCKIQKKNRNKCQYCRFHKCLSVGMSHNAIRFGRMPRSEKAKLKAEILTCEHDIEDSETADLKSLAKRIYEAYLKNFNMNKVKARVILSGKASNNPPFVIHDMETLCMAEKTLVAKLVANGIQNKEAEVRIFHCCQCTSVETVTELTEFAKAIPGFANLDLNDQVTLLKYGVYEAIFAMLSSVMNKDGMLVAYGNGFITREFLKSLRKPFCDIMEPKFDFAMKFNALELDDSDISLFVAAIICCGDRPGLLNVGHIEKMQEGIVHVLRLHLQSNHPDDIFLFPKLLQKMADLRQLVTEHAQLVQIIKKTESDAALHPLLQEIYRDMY
- assay procedure: Transactivation of Gal4-fused human PPARalpha expressed in CHO cells co expressing pG5-Luc reporter at 1 uM
- Type: cell-based
- condition summary: filed as agonist
Some compounds, each annotated with its measured fold change (FC).
Enter the number alone.

Prompt: Value wanted: fold change (FC) (Peroxisome proliferator-activated receptor alpha (Homo sapiens) (UniProt Q07869)) of entry O=C(O)CCc1cccc(OCCC2CCN(c3nc4ccc(Cl)cc4s3)CC2)c1
Response: 1.5

* * *

Observed pEC50 for Peroxisome proliferator-activated receptor gamma (Homo sapiens), reported per entry below.
Convention used: pEC50 is expressed as -log10 of the molar concentration.

Recorded results for 3 compounds are shown here.
- mol smiles: "Cc1ccc(CC(=O)O)cc1OCCC1CCN(c2nc3ccc(Cl)cc3s2)CC1"
  test system: "Peroxisome proliferator-activated receptor gamma (Homo sapiens)"
  pEC50: 6.27
- mol smiles: "CCc1ccc(CC(=O)O)cc1OCCC1CCN(c2nc3ccc(Cl)cc3s2)CC1"
  test system: "Peroxisome proliferator-activated receptor gamma (Homo sapiens)"
  pEC50: 6.17
- mol smiles: "Cc1ccc(OCCC2CCN(c3nc4ccc(Cl)cc4s3)CC2)cc1CC(=O)O"
  test system: "Peroxisome proliferator-activated receptor gamma (Homo sapiens)"
  pEC50: 6.01

For the next question, use this compound.
Prompt: Find the recorded pEC50 belonging to Cc1cc(CC(=O)O)cc(OCCC2CCN(c3nc4ccc(Cl)cc4s3)CC2)c1 and report it.
Response: 5.97
